target-of-assay: T1, TNFR1 (Homo sapiens, UniProt P19438)
T1 chain: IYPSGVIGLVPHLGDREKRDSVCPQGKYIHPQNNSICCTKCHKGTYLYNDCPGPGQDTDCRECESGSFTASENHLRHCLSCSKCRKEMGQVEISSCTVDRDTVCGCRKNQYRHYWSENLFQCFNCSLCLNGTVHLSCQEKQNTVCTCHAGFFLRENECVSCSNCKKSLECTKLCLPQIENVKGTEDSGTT
protocol-details: yeast display SC50
metric: apparent Kd (screen) (nM)

Sample answers from the record:
S77L (designed binder) SMEEEVEKAAKEYEKKKKEAIEKHLEKLKAKDKEAAERFLKELEEAAKEYAKDEAKTMSEEEAKRRAKKYKEKVLLLELSEEEQKEIKEAEEKLVRTILKYVEEAAK
7.07
E34G (designed binder) SMEEEVEKAAKEYEKKKKEAIEKHLEKLKAKDKGAAERFLKELEEAAKEYAKDEAKTMSEEEAKRRAKKYKEKVLLSELSEEEQKEIKEAEEKLVRTILKYVEEAAK
0.405
A105Y (designed binder) SMEEEVEKAAKEYEKKKKEAIEKHLEKLKAKDKEAAERFLKELEEAAKEYAKDEAKTMSEEEAKRRAKKYKEKVLLSELSEEEQKEIKEAEEKLVRTILKYVEEYAK
2.73
Y70I (designed binder) SMEEEVEKAAKEYEKKKKEAIEKHLEKLKAKDKEAAERFLKELEEAAKEYAKDEAKTMSEEEAKRRAKKIKEKVLLSELSEEEQKEIKEAEEKLVRTILKYVEEAAK
20.2
A9M (designed binder) SMEEEVEKMAKEYEKKKKEAIEKHLEKLKAKDKEAAERFLKELEEAAKEYAKDEAKTMSEEEAKRRAKKYKEKVLLSELSEEEQKEIKEAEEKLVRTILKYVEEAAK
0.446

I: A51G (designed binder) SMEEEVEKAAKEYEKKKKEAIEKHLEKLKAKDKEAAERFLKELEEAAKEYGKDEAKTMSEEEAKRRAKKYKEKVLLSELSEEEQKEIKEAEEKLVRTILKYVEEAAK
II: K23M (designed binder) SMEEEVEKAAKEYEKKKKEAIEMHLEKLKAKDKEAAERFLKELEEAAKEYAKDEAKTMSEEEAKRRAKKYKEKVLLSELSEEEQKEIKEAEEKLVRTILKYVEEAAK
Q. Field: lower recorded apparent Kd (screen) (choose I or II ) Return value: the label identifying the chosen record.
A. II
